Reference for the values: patent US10479780B2

Target: human Lck enzyme (Homo sapiens, UniProt P06239)
Construct: purchased Carna Biosciences, Inc. 08-170
Sequence (P06239 whole entry): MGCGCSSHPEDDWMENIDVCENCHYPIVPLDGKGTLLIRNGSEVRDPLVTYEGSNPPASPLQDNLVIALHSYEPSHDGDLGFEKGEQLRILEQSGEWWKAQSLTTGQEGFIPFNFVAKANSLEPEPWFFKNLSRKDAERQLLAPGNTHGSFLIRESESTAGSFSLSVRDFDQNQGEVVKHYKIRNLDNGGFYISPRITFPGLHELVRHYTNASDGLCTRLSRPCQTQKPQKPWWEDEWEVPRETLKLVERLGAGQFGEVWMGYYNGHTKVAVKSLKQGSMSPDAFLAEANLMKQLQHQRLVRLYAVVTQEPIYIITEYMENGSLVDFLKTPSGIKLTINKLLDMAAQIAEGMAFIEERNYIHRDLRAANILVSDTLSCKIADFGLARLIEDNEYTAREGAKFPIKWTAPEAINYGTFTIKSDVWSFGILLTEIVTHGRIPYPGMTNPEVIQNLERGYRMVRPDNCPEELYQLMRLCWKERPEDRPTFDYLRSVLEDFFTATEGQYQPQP
Experiment: Lck enzyme inhibitory activity (time-resolved fluorometry, biotinylated peptide phosphorylation)
Assay type: biochemical
Details: read-out: LCK_IC50
Description: 3. Lck Enzyme Inhibitory Activity Lck inhibitory activity was determined based on activity of inhibiting phosphorylation reaction of a biotinylated peptide (EGPWLEEEEEAYGWMDF) using a human Lck enzyme (manufactured by Carna Biosciences, Inc., cat 08-170). The phosphorylated biotinylated peptide was detected by time-resolved fluorometry using an anti-phosphorylated tyrosine antibody conjugated to europium cryptate, and streptavidin conjugated to XL665, an allophycocyanin derivative. […]
Class membership depends on IC50 alone; the intervals are one (below 20 nM), two (20 nM to below 70 nM), three (70 nM or more)

Query: Tag the class for Cc1cc(Oc2ccccc2F)ncc1-n1ncc(C(=O)c2cc3cc(SC(F)F)c(NS(=O)(=O)CCCF)cc3[nH]2)c1N
Reply: three

Query: What about this compound? Nc1c(C(=O)c2cc3cc(F)c(NS(=O)(=O)CCCF)cc3[nH]2)cnn1-c1c(Cl)cc(Oc2ccccc2F)cc1Cl
Reply: three

Query: Another: Cc1cc(-n2ncc(C(=O)c3cc4cc(OC5CCN(C(C)C)CC5)c(F)cc4[nH]3)c2N)ccc1Oc1ccccc1F
Reply: two

Query: Cc1cc(Oc2ccccc2F)ncc1-n1ncc(C(=O)c2cc3cc(F)c(NS(=O)(=O)CC(=O)NC(C)C)cc3[nH]2)c1N ?
Reply: two

Query: What do we get for Cc1cc(Oc2ccccc2F)ccc1-n1ncc(C(=O)c2cc3cc(C(C)C)c(NS(=O)(=O)C4CCOCC4)cc3[nH]2)c1N ?
Reply: three

Query: And Cc1cc2cc(C(=O)c3cnn(-c4ccc(Oc5ccccc5F)cc4C)c3N)[nH]c2cc1N1C(=O)NC2(CCN(Cc3ccccc3)CC2)C1=O ?
Reply: one

Query: Also Cc1cc2cc(C(=O)c3cnn(-c4ccc(Oc5ccccc5F)cc4C)c3N)[nH]c2cc1N1C(=O)NC2(CCNC2)C1=O (stereo not shown) , if possible.
Reply: one

Query: Quick one: Cc1cc(Oc2ccccc2F)ncc1-n1ncc(C(=O)c2cc3cc(OCC(F)F)c(NS(=O)(=O)C4CCOCC4)cc3[nH]2)c1N
Reply: two

Query: Record: Cc1cc2cc(C(=O)c3cnn(-c4ccc(Oc5cccc(F)c5)c(C)c4)c3N)[nH]c2cc1NS(C)(=O)=O
Reply: three

Query: Let us now turn to Cc1cc2cc(C(=O)c3cnn(-c4cc(C)c(Oc5ccccc5F)cc4C)c3N)[nH]c2cc1NS(C)(=O)=O
Reply: three

Query: Request: Cc1cc(Oc2ccccc2F)ccc1-n1ncc(C(=O)c2cc3cc(OC(F)F)c(NS(=O)(=O)C4CCOCC4)cc3[nH]2)c1N
Reply: two

Query: What about Cc1cc(Oc2ccccc2F)ccc1-n1ncc(C(=O)c2cc3cc(OC4CCN(C(C)C)CC4)c(F)cc3[nH]2)c1N ?
Reply: one

Query: Field entry: Cc1cc(Oc2cccc(F)c2)ncc1-n1ncc(C(=O)c2cc3cc(F)c(NS(=O)(=O)CCCF)cc3[nH]2)c1N
Reply: two

* * *

Target: human Lck enzyme (Homo sapiens, UniProt P06239)
Construct: purchased Carna Biosciences, Inc. 08-170
Assay: Lck enzyme inhibitory activity (time-resolved fluorometry, biotinylated peptide phosphorylation)
Assay type: biochemical
Details: biotinylated peptide phosphorylation, read-out: LCK_IC50
metric: pIC50
pIC50 field: float, defined as -log10 of concentration (mol/L).

Query: Report pIC50 for Cc1cc(Oc2ccccc2F)ccc1-n1ncc(C(=O)c2cc3cc(F)c(NS(=O)(=O)CC(=O)N4CCOCC4)cc3[nH]2)c1N please.
Reply: 8.08

Query: How about COc1cc2cc(C(=O)c3cnn(-c4ccc(Oc5ccccc5F)cc4C)c3N)[nH]c2cc1NS(=O)(=O)CCCF ?
Reply: 7.70

Query: Next molecule up: Cc1cc(Oc2ccccc2F)ccc1-n1ncc(C(=O)c2cc3cc(F)c(NS(=O)(=O)CC(=O)NC(C)C)cc3[nH]2)c1N
Reply: 7.96

Query: For Cc1cc(Oc2cccc(Cl)c2)ccc1-n1ncc(C(=O)c2cc3cc(C4CCN(C(C)C)CC4)c(F)cc3[nH]2)c1N then?
Reply: 8.68

Query: Follow-up item: CC(=O)N1CCC(c2cc3[nH]c(C(=O)c4cnn(-c5cnc(Oc6ccccc6F)cc5C)c4N)cc3cc2OC(F)F)CC1
Reply: 8.26

Query: What about this molecule? Cc1cc(Oc2ccccc2F)ncc1-n1ncc(C(=O)c2cc3cc(F)c(NS(=O)(=O)NC4CCOCC4)cc3[nH]2)c1N
Reply: 7.92

Query: Another molecule to check: Cc1cc2cc(C(=O)c3cnn(-c4cnc(Oc5ccccc5F)cc4C)c3N)[nH]c2cc1NS(=O)(=O)c1cc(C#N)cc(C(F)(F)F)c1
Reply: 6.26

Query: Param item: Cc1cc(Oc2cccc(F)c2F)ccc1-n1ncc(C(=O)c2cc3cc(F)c(C4CCN(C(C)C)CC4)cc3[nH]2)c1N
Reply: 8.57

Query: Thanks! And Cc1cc(Oc2ccccc2F)ncc1-n1ncc(C(=O)c2cc3cc(F)c(NS(=O)(=O)c4cccc(Cl)c4)cc3[nH]2)c1N ?
Reply: 6.16

Query: Next molecule up: Cc1cc(Oc2c(F)cccc2F)ncc1-n1ncc(C(=O)c2cc3cc(OCC(F)F)c(NS(=O)(=O)c4cccc(C#N)n4)cc3[nH]2)c1N
Reply: 7.89

Query: Consider next the molecule Cc1cc(Oc2c(F)cccc2F)ncc1-n1ncc(C(=O)c2cc3cc(OCC(F)F)c(C4CCN(C(=O)CN)CC4)cc3[nH]2)c1N in the same way.
Reply: 8.09

Query: Note, next up: Cc1cc2cc(C(=O)c3cnn(-c4cnc(Oc5ccccc5Cl)cc4C)c3N)[nH]c2cc1NS(=O)(=O)CCCF
Reply: 7.57

Query: Please do the same for Nc1c(C(=O)c2cc3cc(F)c(NS(=O)(=O)CCCF)cc3[nH]2)cnn1-c1ccc(Oc2ccccn2)cc1Cl as well.
Reply: 7.82

Query: Also need Cc1cc(Oc2ccccc2F)ncc1-n1ncc(C(=O)c2cc3cc(OC(F)F)c(N4CCOC4=O)cc3[nH]2)c1N , thanks.
Reply: 8.77

Query: Thanks! And Cc1cc2cc(C(=O)c3cnn(-c4cnc(Oc5c(F)cccc5F)cc4C)c3N)[nH]c2cc1NS(=O)(=O)c1cccc(C#N)c1 ?
Reply: 6.82

Query: // repeat for Cc1cc(Oc2ccccc2F)cc(F)c1-n1ncc(C(=O)c2cc3cc(OCC(F)F)c(N4CCOC4=O)cc3[nH]2)c1N and report
Reply: 8.64

Query: Cc1cc2cc(C(=O)c3cnn(-c4ccc(Oc5ccccc5F)cc4C)c3N)[nH]c2cc1N1C(=O)[C@@H]2CCCN2C1=O ?
Reply: 8.40

Query: Moving on to the next molecule: Cc1cc(Oc2cccc(F)c2F)cc(F)c1-n1ncc(C(=O)c2cc3cc(F)c(N)cc3[nH]2)c1N
Reply: 7.62

Query: Another molecule to look at: Cc1cc(Oc2ccccc2F)ncc1-n1ncc(C(=O)c2cc3cc(OCC(F)F)c(NS(=O)(=O)c4cccc(C#N)c4)cc3[nH]2)c1N
Reply: 7.04

Query: Then this molecule: Cc1cc(Oc2ccccc2Cl)cc(F)c1-n1ncc(C(=O)c2cc3cc(F)c(NS(=O)(=O)C4CC4)cc3[nH]2)c1N
Reply: 7.00

Query: And the next one, COc1ccnc(S(=O)(=O)Nc2cc3[nH]c(C(=O)c4cnn(-c5ccc(Oc6ccccc6F)cc5C)c4N)cc3cc2C)c1 ?
Reply: 7.05

Query: // next record Cc1cc(Oc2ccccc2F)ncc1-n1ncc(C(=O)c2cc3cc(F)c(NS(=O)(=O)N4CCOCC4)cc3[nH]2)c1N
Reply: 7.48

Query: And for CS(=O)(=O)Nc1cc2[nH]c(C(=O)c3cnn(-c4ccc(Oc5ccccn5)cc4Cl)c3N)cc2cc1F ?
Reply: 7.85

Query: Now this one: Cc1cc(Oc2ccccc2F)ccc1-n1ncc(C(=O)c2cc3cc(F)c(NS(=O)(=O)c4cc(F)cc(F)c4)cc3[nH]2)c1N
Reply: 6.74

Query: And for Cc1cc2cc(C(=O)c3cnn(-c4ccc(Oc5ccccc5F)cc4C)c3N)[nH]c2cc1N1C(=O)CNC1=O ?
Reply: 8.39

* * *

Assign IC50 to each entry below.
Target: human Src enzyme (Homo sapiens, UniProt P12931)
Construct: purchased Carna Biosciences, Inc. 08-173
Sequence (P12931 whole entry): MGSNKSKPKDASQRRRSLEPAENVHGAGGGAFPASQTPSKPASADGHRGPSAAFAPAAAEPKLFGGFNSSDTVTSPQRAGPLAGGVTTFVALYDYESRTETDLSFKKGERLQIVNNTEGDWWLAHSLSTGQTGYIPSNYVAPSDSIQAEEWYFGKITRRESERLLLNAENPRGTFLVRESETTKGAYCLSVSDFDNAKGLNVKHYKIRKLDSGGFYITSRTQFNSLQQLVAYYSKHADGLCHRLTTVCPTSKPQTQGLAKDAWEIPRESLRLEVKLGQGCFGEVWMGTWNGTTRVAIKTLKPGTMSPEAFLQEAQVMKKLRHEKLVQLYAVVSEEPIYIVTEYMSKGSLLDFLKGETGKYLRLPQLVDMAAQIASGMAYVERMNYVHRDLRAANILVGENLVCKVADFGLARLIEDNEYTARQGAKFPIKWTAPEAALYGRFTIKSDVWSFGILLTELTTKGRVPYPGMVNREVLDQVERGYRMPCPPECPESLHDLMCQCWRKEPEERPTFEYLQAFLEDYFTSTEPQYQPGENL
Test: Src enzyme inhibitory activity (time-resolved fluorometry, biotinylated peptide phosphorylation)
Format: biochemical
Conditions: biotinylated peptide phosphorylation, read-out: SRC_IC50
Method: 2. Src Enzyme Inhibitory Activity Src inhibitory activity was determined based on activity of inhibiting phosphorylation reaction of a biotinylated peptide (EGPWLEEEEEAYGWMDF) using a human Src enzyme (manufactured by Carna Biosciences, Inc., cat 08-173). The phosphorylated biotinylated peptide was detected by time-resolved fluorometry using an anti-phosphorylated tyrosine antibody conjugated to europium cryptate, and streptavidin conjugated to XL665, an allophycocyanin derivative. […]
Give the value in nM but do not write nM after it.

Query: Entry under review: Cc1cc(Oc2cccc(F)c2F)ccc1-n1ncc(C(=O)c2cc3cc(F)c(NS(C)(=O)=O)cc3[nH]2)c1N . Reported IC50?
Reply: 28

Query: Field entry: Cc1cc(Oc2ccccc2F)ncc1-n1ncc(C(=O)c2cc3cc(OC(F)F)c(N4CCCS4(=O)=O)cc3[nH]2)c1N
Reply: 48

Query: One more compound: Cc1cc(Oc2ccccc2F)ccc1-n1ncc(C(=O)c2cc3cc(OC(F)F)c(N4CCN(S(C)(=O)=O)CC4)cc3[nH]2)c1N
Reply: 44
